Test: soluble on expression in E. coli; label from the status in PepcDB or PDB records
property_name: soluble on expression in E. coli

Field: example entries. Status: answers known.
chain: MGSDKIHHHHHHMMAFITVKPEIKNNLANVAKELKIDEELLKSANRSAQKHQLYCPGYVIEEHSGKELQTIQDIKRFLQPRQLKLSDSWIEQEKIYDDSAVEKEIKKIIDVFPFVSCREIGRSVLGRPIWELKAGGEHAVKKVHMNASFHANEWITTSVLLKWFKEYCMSLCCNSPFFGFSPIKLFNSTSLSLVPLVNPDGVDLVLNGSEVMGARRDELERLNEHRPNFNEWKANINGVDLNKQFPSLWEIEKYRKPTAPSYRDFPGISPLTEPESIAMYRLITENPPDRLLALHTQGEEIYWGYKGLEPEESAAVIKEFEELSGNIYKGVRDIDSYAGFRDWFIHHYFKEGYTVELGKGQNPLPFQQFSHIYNATSGILWRALFFHE
soluble on expression in E. coli: not soluble
--
chain: VVQAPTQVPGFLGDSVTLPCYLQVPNMEVTHVSQLTWARHGESGSMAVFHQTQGPSYSESKRLEFVAARLGAELRDASLRMFGLRVEDEGSYTCLFVTFPQGSRSVDIWLRVLAKPQNTAEVQKVQLTGEPVPMARCVSTGGRPPAQITWHSDLGGMPQTSQVPGFLSGTVTVTSLWILVPSSQVDGKQVTCKVEHESFEKPQLLTVSLTVYY
soluble on expression in E. coli: soluble
--
chain: FHMNRVTGELGNRPLFSIADFTFYQGISCILGDNGVGKSTLFRSILQFQKYKGSITWKGSVLKKKKSLYRDLTGVVQEAEKQFIRVSLREELQLDGPDSERNQRIFQALRYFDLEQAVDKSPYQLSGGQQKILQLLTILTSKASVILLDEPFAGLDDRACHYFCKWIVEERNQGRSFLLISHRLDPLISVVDYWIEMTSQGLRHVKEVTITKPLTSQSSNTQGEVR
soluble on expression in E. coli: soluble
--
chain: MAPSSLSQSFDHAAQTPEIFEKVPSRTVGRKATITKEELFQAALNLIGPEKSISSLSLREVAREAGIAPNSFYRHFRDIDELAIDLINRAGLVLRHIIRESRLQASKQNSIIRSSVEVFIQQLDADEGNLSLLLREAYTGSKSYKEAVERQLNFFQQELQEDLIRLERLNHSRLSHPDLVARAITQLVFTMGAKVLDLPINQRTAVAEQTMIMIRMILEGARHLDESKIR
soluble on expression in E. coli: soluble
--
chain: MGSSHHHHHHSSGLVPRGSHMKRSSPVILVSEDEYGKFDESTNSILVKGKMHHLGISRVIEPGDELIVSGKSFIVSDFSPMYFGRVIRRNTQIISEIDASYIIMRCGLRPGMDILEVGVGSGNMSSYILYALNGKGTLTVVERDEDNLKKAMDNLSEFYDIGNVRTSRSDIADFISDQMYDAVIADIPDPWNHVQKIASMMKPGSVATFYLPNFDQSEKTVLSLSASGMHHLETVELMKRRILVREGATRPASDDLTHTAFITFAIKKSGMVYRI
soluble on expression in E. coli: soluble

Read the next record carefully.
Reported soluble on expression in E. coli, sequence MTPVQIAAVVVTYESSSTIDACLSRLRAAEGISEIRVVDNASSDDTLEVVQRHALADARLHFIANPDNPGFATACNQGARDSQAPWLVFINPDLMIARDTLLQLYHRAAGHPAVLLGVEQVDEQGRPDAAVRRRDPDFAAMLRAPRAAANLAVPADPSRALQPVDAISGALMLMQRSLFDRLDGWDGSYRLHAEDLDLCRRARQAGALVAVANDLHVLHVRGVSSRARPFFVEWHKHRGLWRYFRKFEADRRGLLTRLGVWLAIWSHAAAQVPRLLQNKLEHHHHHH : ____ not soluble
